target: GABA-A receptor; anion channel; experiment: Anticonvulsant activity against gamma-aminobutyric acid receptor
RECORDED METRIC: pIC50
To interpret pIC50, take it as minus log10 of a concentration measured in moles per litre.

Lookup result for CCC1(Cc2ccccc2)CCCNC1=O (stereo unspecified) ; measured pIC50: 3.31

====

species on record: Rattus norvegicus; assay: Neuroprotective activity was determined in the rat middle cerebral artery occlusion (MCAO) model of focal stroke; assay type: functional; conditions: read-out: MED
Catalogue of minimal effective dose values
Just the number plus its unit, please.

Example results:
Lookup result for `Nc1ncc(-c2cc(Cl)cc(Cl)c2Cl)c(N)n1` ; measured minimal effective dose: 20 mg/kg

Lookup result for `Cc1nc(OCCCCCN2CCCCC2)cc(-c2ccc(F)cc2)n1` ; measured minimal effective dose: 0.5 mg/kg

Lookup result for `N=c1sc2ccccc2n1CCN1CCC(c2ccc(F)cc2)CC1` ; measured minimal effective dose: 16 mg/kg

Lookup result for `Nc1nc2ccc(OC(F)(F)F)cc2s1` ; measured minimal effective dose: 4 mg/kg

Lookup result for `Nc1nnc(-c2cccc(Cl)c2Cl)c(N)n1` ; measured minimal effective dose: 20 mg/kg

Lookup result for NC(=O)N1c2ccccc2C=Cc2ccccc21 [CARBAMAZEPINE] ; measured minimal effective dose: 2 mg/kg

Lookup result for `CN1CCN(c2ncc(-c3cc(Cl)cc(Cl)c3Cl)c(N)n2)CC1` ; measured minimal effective dose: 30 mg/kg

Lookup result for CC(Cc1ccccc1)(NC(=O)CN)c1ccccc1 (stereo not drawn) [REMACEMIDE] ; measured minimal effective dose: 10 mg/kg

Further cases:
Lookup result for OC(COc1ccccc1)CN1CCC(c2ccc(Oc3ccccc3)cc2)CC1 (stereo not drawn) ; measured minimal effective dose: 3 mg/kg

Lookup result for CCOc1ccccc1OCCN1CCC2(CC)c3cccc(O)c3CC1C2(C)C (stereo not drawn) ; measured minimal effective dose: 2 mg/kg

Lookup result for NS(=O)(=O)Cc1noc2ccccc12 [ZONISAMIDE] ; measured minimal effective dose: 100 mg/kg

Lookup result for `O=C1NC(=O)C(c2ccccc2)(c2ccccc2)N1` ; measured minimal effective dose: 200 mg/kg

Lookup result for `CN(c1nc2ccccc2s1)C1CCN(C[C@H](O)COc2ccc(F)c(F)c2)CC1` ; measured minimal effective dose: 0.3 mg/kg

====

assay: In vivo toxic dose in rotarod assay; assay type: ADME, organism-based; conditions: rat
Binary label based on TD50 with cut-off 40 mg/kg: below gives Criterion met, not below gives Criterion not met.

Look over these answered cases.
Confirm or reject: TD50 of `COC(=O)c1[nH]cc(-c2ccc(Br)cc2)c1N1CCOCC1` lies strictly below 40 mg/kg Criterion not met

Confirm or reject: TD50 of NC(=O)N1c2ccccc2C=Cc2ccccc21 [CARBAMAZEPINE] lies strictly below 40 mg/kg Criterion met

Confirm or reject: TD50 of `COC(=O)[C@@H]1C(=O)C=C(Nc2ccc(Cl)cc2)C[C@H]1C` lies strictly below 40 mg/kg Criterion not met

Confirm or reject: TD50 of Nc1cnc(-c2cc(Cl)cc(Cl)c2Cl)c(N)n1 [ELPETRIGINE] lies strictly below 40 mg/kg Criterion met

# next compound below
Confirm or reject: TD50 of Nc1nnc(-c2cccc(Cl)c2Cl)c(N)n1 [LAMOTRIGINE] lies strictly below 40 mg/kg Criterion not met

Where do the numbers come from? From ChEMBL document CHEMBL1134457.
